Provenance of the data: patent US20250197407A1

target: SOS1/KRAS WT (Homo sapiens (Human), UniProt Q07889); assay: SOS1/KRAS WT HTRF binding assay (FRET-based protein-protein interaction); settings: inhibition of His6-SOS1 (aa564-1049, 40 nM) binding to GST-KRAS-WT (aa1-188, 40 nM); at least two independent replicates; read-out: SOS1/KRAS WT HTRF Binding assay pIC50 (converted)
Sequence (Q07889 564-1049): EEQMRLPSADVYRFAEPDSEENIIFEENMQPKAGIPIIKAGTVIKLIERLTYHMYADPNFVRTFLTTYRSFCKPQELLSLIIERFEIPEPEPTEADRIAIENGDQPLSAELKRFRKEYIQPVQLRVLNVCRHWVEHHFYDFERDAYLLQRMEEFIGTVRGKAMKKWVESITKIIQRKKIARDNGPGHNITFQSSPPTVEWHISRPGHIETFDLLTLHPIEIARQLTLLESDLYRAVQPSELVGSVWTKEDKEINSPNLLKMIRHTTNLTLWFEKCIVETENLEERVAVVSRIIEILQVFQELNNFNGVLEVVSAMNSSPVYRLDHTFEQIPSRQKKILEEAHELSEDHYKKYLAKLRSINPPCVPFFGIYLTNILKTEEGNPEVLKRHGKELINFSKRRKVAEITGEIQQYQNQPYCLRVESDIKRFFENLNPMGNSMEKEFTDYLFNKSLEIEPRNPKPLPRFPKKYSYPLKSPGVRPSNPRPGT
observed_property: IC50 (nM)

Completed entries (count: 6):
Cc1nnc(N[C@H](C)c2cc(F)cc(C(F)(F)CO)c2)c2cc3c(cc12)n(C)c(=O)n3C: 23.4
Cc1c([C@@H](C)Nc2nnc(C)c3cc4c(cc23)n(C2CC2)c(=O)n4C)cccc1C(F)(F)F: 6.61
Cc1nnc(N[C@H](C)c2cccc(C(F)F)c2)c2cc3c(cc12)n(C)c(=O)n3C: 39.8
CCC1(OC)C(=O)N(C)c2cc3c(C)nnc(N[C@H](C)c4cccc(C(F)(F)CO)c4)c3cc21 (stereo partly drawn): 25.1
Cc1nnc(N[C@H](C)c2cccc(C(F)(F)F)c2)c2cc3[nH]c(=O)n(C)c3cc12: 66.1
CCn1c(=O)n(C)c2cc3c(C)nnc(N[C@H](C)c4cccc(C(F)F)c4F)c3cc21: 10

A. Cc1nnc(N[C@H](C)c2cccc(C(F)(F)CO)c2F)c2cc3c(cc12)C(C)(C)C(=O)N3C1CC1
B. Cc1nnc(N[C@H](C)c2cccc(C(F)(F)F)c2)c2cc3c(cc12)n(C)c(=O)n3CC1CC1
Lookup: Higher IC50 between A and B ? In your reply, give the label of the chosen option.
Found: B
(B: 23.4 nM, A: 8.71 nM)
